# melting point annotations
experimental.endpoint: melting point

• CCOc1cc(-n2ccnc2)ccc1C#N = 134 to 136 °C
• Nc1cc(C(=O)O)cc(S(N)(=O)=O)c1Oc1ccccc1 = 252 to 253 °C
• O=c1[nH]cc(Cc2cccnc2)cc1[N+](=O)[O-] = 216 to 217 °C
• CC(=O)C(c1ccc(Cl)cc1)c1c(Cl)cc(-n2ncc(=O)[nH]c2=O)cc1Cl (configuration not stated) = 208 °C
• CC=CC(=O)Nc1cc(C(C)(C)C)c(O)c(C(C)(C)C)c1 = 211 to 214 °C
• Oc1nc(Cl)nc(NN=Cc2cc(C(F)(F)F)cc(C(F)(F)F)c2)n1 = 258 °C
• COc1ccc(-c2sc3ncc(CO)c(O)c3c2C)cc1 = > 300 °C
